- Tested on: UACC-62 melanoma
- test-details: NCI tumour cell line growth inhibition, 48 h; in the data active means GI50 below about 0.43 µM; inactive means the rest
Outcomes you can answer with include only these: 1 (active), -1 (inactive)

[
  {
    "molecule": "N#CN1CC[C@H](C(=O)Nc2cc3cc(C(N)=O)ccc3cn2)C1",
    "discrete-label": 1
  },
  {
    "molecule": "O=c1oc2ccc(-c3ccc(F)cc3F)cc2c(=O)n1-c1ccc(Cl)c(C(F)(F)F)c1",
    "discrete-label": -1
  },
  {
    "molecule": "O=C(Nc1cc(Oc2cc(F)c(NC(=O)C3(C(=O)Nc4ccc(F)cc4)CC3)cc2F)ccn1)C1CC1",
    "discrete-label": -1
  },
  {
    "molecule": "Nc1ccccc1C#C/C=C\\C#Cc1c(F)c(F)c(F)c(F)c1F",
    "discrete-label": -1
  }
]

Lab note: next molecule to report on.
Incoming: What was the test verdict on O=C(c1ccccc1)n1c(-c2ccccc2)cs/c1=N\S(=O)(=O)c1ccc(N2N=C3c4ccccc4CC3C2c2cccs2)cc1 (stereo not given) ?
Outgoing: -1

###

- Test system: OVCAR-5 ovarian
- test-details: NCI tumour cell line growth inhibition, 48 h
measured-quantity: GI50

Worked examples follow.
[
  {
    "compound": "COc1cc(-n2ccnc2)cc(OC)c1OC",
    "GI50": "> 100 µM"
  },
  {
    "compound": "Cc1c(C(N)=O)sc2c1c(=O)n(Cc1ccccc1)c1nnc(-c3ccc(Br)cc3)n21",
    "GI50": "7.17 µM"
  },
  {
    "compound": "O=S(=O)(Nc1ccc(F)c(Cl)c1)c1ccc(-c2cnc(C3CC3)o2)cc1",
    "GI50": "0.798 µM"
  }
]

Incoming: // GI50 lookup, key: COc1ccc(C(CC(=O)c2ccccc2)C(C(=O)c2ccccc2)C(c2ccc(OC)cc2)C2C(=O)NC(=S)NC2=O)cc1 (stereo unspecified)
Outgoing: 13.9 µM

Incoming: Next: CNS(=O)(=O)OCC1OC(n2cnc3c(N)ncnc32)C(O)C1O (stereo unspecified)
Outgoing: > 100 µM

Incoming: Param item: "Cc1ccc(-c2nc(-c3cn(C)c4ncccc34)cs2)cc1"
Outgoing: 7.78 µM

###

- System: DU-145 prostate
- test-details: NCI tumour cell line growth inhibition, 48 h
measured-quantity: TGI

[
  {
    "compound": "COc1nc2c(c(=O)n1C)N=C(c1ccc(Cl)cc1)CC(c1ccccc1)N2 (stereo unspecified)",
    "measured-quantity": "TGI",
    "readout-value": "> 100 µM"
  },
  {
    "compound": "COc1ccc2c(c[n+](C)c3c4cc5c(cc4ccc23)OCO5)c1OC",
    "measured-quantity": "TGI",
    "readout-value": "> 100 µM"
  },
  {
    "compound": "COc1cc(NCCN=C(N)NC(N)=NC(C)C)c2ncccc2c1",
    "measured-quantity": "TGI",
    "readout-value": "> 100 µM"
  }
]

Incoming: Quick check: TGI of CN1C(=O)CC2CCC(=O)N2c2cccnc21 (stereo unspecified) ?
Outgoing: > 100 µM

Incoming: Input "O=C(CC(=O)c1cccc(Cl)c1)c1cccc(Cl)c1"
Outgoing: > 100 µM

Incoming: Try "CC[P+]1(c2ccccc2)[C@@H](C)CC[C@@H]1C" next.
Outgoing: > 100 µM

Incoming: Query C[C@]12CCNC(=O)C=C1CC[C@@H]1C2CC[C@@]2(C)C1CC[C@@H]2OC(=O)COc1ccc(N(CCCl)CCCl)cc1 (stereo partly specified) next
Outgoing: 22 µM

Incoming: Lookup "Cc1ccc2[nH]c3[nH]c(=S)[nH]c(=O)c3c2c1"
Outgoing: > 100 µM

Incoming: Would you mind doing "COc1ccc(/C=C\c2cc(OC)c(OC)c(OC)c2)cc1OCC(=O)Nc1ccc2nc(C)sc2c1" as well?
Outgoing: 29.7 µM

Incoming: And the next one, "COc1cc(-n2ccnc2)cc(OC)c1OC" ?
Outgoing: > 100 µM

Incoming: Next compound up: "C=C(C)C(=O)O[C@@H]1C/C(C)=C\[C@H](OC(C)=O)C[C@](C)(O)/C=C2/OC(=O)C(COC(C)=O)=C21"
Outgoing: 7.13 µM

Incoming: And "Nc1ccccc1C#C/C=C\C#Cc1c(F)c(F)c(F)c(F)c1F" ?
Outgoing: 79.9 µM

Incoming: Same lookup for "CC1(C)CC(=O)c2c(nc3c(ccc4ccccc43)c2-c2ccc(NC(=O)CCCCC(=O)Nc3ccc(-c4c5c(nc6c4ccc4ccccc46)CC(C)(C)CC5=O)cc3)cc2)C1" , please.
Outgoing: > 100 µM

Incoming: And the next one, Cc1ccc(O)c(C2=CC(c3cccc(Br)c3)SC(N)=N2)c1 (stereo unspecified) ?
Outgoing: > 100 µM
